assay: Plasma and tissue distribution in SD rats; type: in vivo; conditions: female SD rat, PO 10 mg/kg, Liver
Assay Metric: half-life

Input line: Using the record for C[C@@H](c1ccc(Nc2cc(Nc3ncccc3S(C)(=O)=O)ncn2)nc1)N1CC2(COC2)C1 , report its half-life.
Output line: 2.67 h

---

test: Plasma and tissue distribution in SD rats; assay type: in vivo; conditions: male, Sprague-Dawley (SD); M SD rat, Heart
Assay Metric: Tmax (min)
Numeric only. Scale: min

Input line: Using the record for C[C@@H](c1ccc(Nc2cc(Nc3ncc(F)cc3S(C)(=O)=O)ncn2)nc1)N1CC2(COC2)C1 , report its Tmax.
Output line: 30
